Procedure summary: Metabolic stability in human liver microsomes assessed as parent compound remaining incubated for 1 hr
Format: ADME, Microsome
Stated conditions: read-out: Stabilty
What remaining at 1 h was measured for each of the following?
Express the result in % but write the number alone.

Entry O=[N+]([O-])c1cn2c(n1)OC[C@H](OCC#Cc1ccc(-c3ccc(OC(F)(F)F)cc3)cn1)C2 — recorded remaining at 1 h = 68

Entry O=[N+]([O-])c1cn2c(n1)OC[C@H](OCc1ccc(-c3ccc(OC(F)(F)F)cc3Cl)cc1)C2 — recorded remaining at 1 h = 85

Entry CC1(COc2ccc(OC(F)(F)F)cc2)CCn2nc([N+](=O)[O-])nc2O1 (stereo unspecified) — recorded remaining at 1 h = 91

Entry CC1(COc2ccc(OC(F)(F)F)cc2)CCn2cc([N+](=O)[O-])nc2S1(=O)=O (stereo unspecified) — recorded remaining at 1 h = 88

Entry O=[N+]([O-])c1cn2c(n1)OC[C@H](OCc1ccc(-c3ccc(C(F)(F)F)cc3Cl)cc1)C2 — recorded remaining at 1 h = 76

Entry O=[N+]([O-])c1cn2c(n1)OC[C@H](OCC#Cc1ccc(-c3ccc(C(F)(F)F)cc3)cn1)C2 — recorded remaining at 1 h = 58

Data origin: ChEMBL document CHEMBL4706606
